System: Panel CNS (Carcinoma cell lines)
Experiment: In vitro median growth inhibitory concentration against CNS cancer cell lines
Assay type: functional
Details: Homo sapiens
PROPERTY_NAME: GI50 (µM)
The reply should contain only the number, in µM.

Recorded GI50, per entry:
MOLECULE: CN1CC2=C(N=C(S)NC2c2cccs2)/C(=C/c2cccs2)C1 (configuration not stated)
GI50 / µM: 76.1
//
MOLECULE: CN1C/C(=C\c2cccs2)C2=NN(c3ccccc3)C(c3cccs3)C2C1 (configuration not stated)
GI50 / µM: 35.7

INPUT: Request body: readout GI50, system Panel CNS (Carcinoma cell lines), query CN1C/C(=C\c2cccs2)C2=NN(C)C(c3cccs3)C2C1 (configuration not stated) . Return the value.
OUTPUT: 80.7

INPUT: Request body: readout GI50, system Panel CNS (Carcinoma cell lines), query Cc1ccc(/C=C2\CN(C)CC3C2=NN(c2ccccc2)C3c2ccc(C)cc2)cc1 (configuration not stated) . Return the value.
OUTPUT: 77

INPUT: Request body: readout GI50, system Panel CNS (Carcinoma cell lines), query Cc1ccc(/C=C2\CN(C)CC3=C2N=C(S)NC3c2ccc(C)cc2)cc1 (configuration not stated) . Return the value.
OUTPUT: 53.7

INPUT: Request body: readout GI50, system Panel CNS (Carcinoma cell lines), query COc1ccc(/C=C2\CN(C)CC3C2=NN(c2ccccc2)C3c2ccc(OC)cc2)cc1 (configuration not stated) . Return the value.
OUTPUT: 63.1

====

Test system: Panel prostate (Carcinoma cell lines)
Experiment: In vitro median growth inhibitory concentration against prostate cancer cell lines
Assay type: functional
Conditions: Homo sapiens
Catalogue of compounds with associated GI50

Recorded GI50, per entry:
COMPOUND: CN1CC2=C(N=C(S)NC2c2cccs2)/C(=C/c2cccs2)C1 (stereo not drawn)
DATA_VALUE: > 100 µM
--
COMPOUND: CN1C/C(=C\c2cccs2)C(O)/C(=C/c2cccs2)C1 (stereo not drawn)
DATA_VALUE: > 100 µM

--- query ---
INPUT: Which GI50 is reported for this compound? COc1ccc(/C=C2\CN(C)CC3C2=NN(c2ccccc2)C3c2ccc(OC)cc2)cc1 (stereo not drawn)
OUTPUT: > 100 µM
